Molecular target: T1, Bio-P19 member A2E-5 (chain 2 carries a C-terminal BirA substrate peptide (BSP), enzymatically biotinylated; the BSP letters are not given in the patent and are left out)
T1 construct: also called biotinylated control peptide A2E-5/HLA-A*02:01 monomer
T1 sequence (beta, as listed by the source): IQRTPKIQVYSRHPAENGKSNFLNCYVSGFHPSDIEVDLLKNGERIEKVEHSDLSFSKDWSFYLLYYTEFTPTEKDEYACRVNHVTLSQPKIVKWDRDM
Experiment: phage ELISA, streptavidin plate, anti-M13-HRP
Measured Metric: binding result

>  <Binder>
PSA146/HLA-A*02:01-specific scFv phage clone #17 (scFv, V domains shown) VH: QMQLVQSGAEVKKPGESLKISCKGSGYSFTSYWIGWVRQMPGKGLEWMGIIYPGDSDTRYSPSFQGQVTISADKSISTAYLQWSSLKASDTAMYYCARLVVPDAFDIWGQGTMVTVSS VL: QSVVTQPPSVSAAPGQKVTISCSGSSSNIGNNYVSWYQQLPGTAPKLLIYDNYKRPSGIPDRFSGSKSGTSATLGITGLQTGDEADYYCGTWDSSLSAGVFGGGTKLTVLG

>  <Observed>
no binding

$$$$
>  <Binder>
PSA146/HLA-A*02:01-specific scFv phage clone #18 (scFv, V domains shown) VH: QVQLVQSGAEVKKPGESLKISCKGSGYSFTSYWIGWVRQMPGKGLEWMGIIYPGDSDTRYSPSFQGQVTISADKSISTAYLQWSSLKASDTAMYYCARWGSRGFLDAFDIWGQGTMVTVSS VL: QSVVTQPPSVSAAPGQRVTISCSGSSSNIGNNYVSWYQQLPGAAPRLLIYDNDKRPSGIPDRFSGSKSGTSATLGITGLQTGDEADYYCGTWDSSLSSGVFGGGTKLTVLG

>  <Observed>
no binding

$$$$
